system: CAMK1B; conditions: concentration: 1 μM, replicates: in singlicate; n = 1;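 further: KINOMEscan kinase panel screen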
Measurement Type: %Inh (%)
Numeric only. Scale: %

Some entries whose results are on file:
>>> endpoint_result("Cc1nccc(-c2c(-c3ccc(F)cc3)ncn2CCCN2CCOCC2)n1.Cl")
0
>>> endpoint_result("CCc1ccc(-c2ccc3c(c2)-c2n[nH]cc2S(=O)(=O)N3C)cc1")
0
>>> endpoint_result("FC(F)(F)c1ccccc1-c1cc(-c2c[nH]nc2-c2ccccn2)ccn1")
29
>>> endpoint_result("Cc1ccc(NC(=O)Nc2ccccc2F)cc1-c1ccc(C(=O)Nc2ccncc2)cc1")
59
>>> endpoint_result("COC(=O)c1cccc(NC(=O)NC2CCN(c3ccnc(Nc4ccc(F)cc4)n3)C2)c1 (stereo not shown)")
16
>>> endpoint_result("COC(=O)C(Cc1ccccc1)NC(=O)NC1CCN(c2ccnc(Nc3ccc(F)cc3)n2)C1 (stereo not shown)")
34

**Q:** Entry CC(=O)c1cccc(NC(=O)NC2CCN(c3ccnc(Nc4ccc(F)cc4)n3)C2)c1 (stereo not shown) has what %Inh?
**A:** 39

**Q:** What does the record list as %Inh for Cn1cncc1C(=O)NC1CCN(c2ccnc(Nc3ccc(F)cc3)n2)C1 (stereo not shown) ?
**A:** 0

**Q:** Given the compound `CC(C)c1ccc(O)cc1Nc1ccnc2ccc(C(F)(F)F)cc12` , what is its reported %Inh?
**A:** 27

**Q:** What value of %Inh has been reported for the following compound? `O=C1NC(=O)C(c2ccc(Cl)cc2)=C1Nc1ccc(O)cc1`
**A:** 0

**Q:** Consider the compound COc1cccc(CNC(=O)NC2CCN(c3ccnc(Nc4ccc(F)cc4)n3)C2)c1 (stereo not shown) and give its measured %Inh.
**A:** 23

**Q:** Field request: %Inh | item: `CSc1ccc(-c2nc3n(c2-c2ccncc2)CCC3)cc1`
**A:** 0

**Q:** // %Inh lookup, key: `O=c1cc(N2CCOCC2)nc2n(Cc3cccc(Cl)c3Cl)c3ccccc3n12`
**A:** 34

---

system: RSK2(Kin.Dom.1-N-terminal); construct: gene RPS6KA3; settings: concentration: 1 μM, replicates: in singlicate; n = 1
Threshold-based label: %Inh under 10% gives Satisfied, %Inh not under 10% gives Not satisfied.

Examples from the recorded data:
>>> class_name("O=C(Nc1n[nH]c2cc(-c3ccsc3)ccc12)C1CC1")
"Not satisfied"
>>> class_name("Cc1c(Cn2c(C)c(C)n3c(=O)cc(N4CCOCC4)nc23)cccc1C(F)(F)F")
"Satisfied"
>>> class_name("O=C(Nc1n[nH]c2nc(-c3cccs3)c(Br)cc12)C1CCCC1")
"Not satisfied"

**Q:** Take the compound `Cc1cnc(N)c(/C=C/c2cncc(C(=O)NCCc3ccc(Cl)cc3Cl)c2)c1.Cl` and say whether its %Inh is less than 10%.
**A:** Satisfied

**Q:** Please indicate whether the reported %Inh of `COc1cc2ncnc(Nc3cccc(Br)c3)c2cc1OC.Cl` is strictly below 10%.
**A:** Not satisfied

**Q:** Just wondering, is %Inh of COC(=O)C(Cc1ccccc1)NC(=O)NC1CCN(c2ccnc(Nc3ccc(F)cc3)n2)C1 (centres unmarked) below 10%?
**A:** Satisfied

---

system: PKN1; details: concentration: 1 μM, replicates: in singlicate; n = 1
Measurement Type: %Inh (%)
Please state the figure in %; there is no need to write the unit.

Would you please look over these solved cases?
>>> endpoint_result("CC(=O)c1c(C)c2cnc(Nc3ccc(N4CCNCC4)cn3)nc2n(C2CCCC2)c1=O")
0
>>> endpoint_result("Cn1cnc2c(N)ncnc21 [SKF-97623]")
0

Consider the record given below.
**Q:** Any idea what %Inh was measured for `CNC(=O)c1ccc(C)c(-n2c(C)cc(OCc3ccc(F)cc3F)c(Br)c2=O)c1` ?
**A:** 0

---

system: LZK; construct: gene MAP3K13; conditions: concentration: 1 μM, replicates: in singlicate; n = 1
Recorded measurements of %Inh, one per entry
The answer should read as a number with its unit following.

**Q:** What %Inh value was documented for this compound, `CNCc1ccc2nc(NC(=O)c3ccc(C(C)(C)C)cc3)cn2c1` ?
**A:** 0%

**Q:** Fill blank: measured %Inh of the compound `Cc1c(Cn2c(C)c(C)n3c(=O)cc(N4CCOCC4)nc23)cccc1C(F)(F)F` is ____.
**A:** 0%

**Q:** What value of %Inh has been reported for the following compound? `O=c1cc(N2CCOCC2)nc2n(Cc3cccc(Cl)c3Cl)c3ccccc3n12`
**A:** 0%

**Q:** GET /values?readout=%Inh&item= `Cc1cnc(N)c(/C=C/c2cncc(C(=O)NCCc3ccc(Cl)cc3Cl)c2)c1.Cl`
**A:** 0%

**Q:** May I ask what %Inh has been recorded for `Cc1ccc(NC(=O)c2ccc(Cl)cc2)cc1-c1ccc(C(=O)Nc2ccncc2)cc1` ?
**A:** 3%

---

system: NEK4; conditions: concentration: 1 μM, replicates: in singlicate; n = 1
Measurement Type: %Inh
Quick note: number first, unit second.

>>> endpoint_result("COc1ccc(CSc2nnc(-c3ccc4c(c3)CCO4)o2)cc1")
"0%"

**Q:** Record CC[C@@H]1CO[C@H](C(=O)Nc2ccccc2)CN1c1cc(-c2ccc3c(N)n[nH]c3c2)nc(NC)n1 [GSK2376236] : what is its %Inh with NEK4?
**A:** 0%

**Q:** # get_value(readout= %Inh, system= NEK4) for Cn1cncc1C(=O)NC1CCN(c2ccnc(Nc3ccc(F)cc3)n2)C1 (centres unmarked) [GSK1379717]
**A:** 3%

**Q:** Look up %Inh with NEK4 for this molecule: O=c1cc(N2CCOCC2)nc2n(Cc3cccc(Cl)c3Cl)c3ccccc3n12 [GSK2299009]
**A:** 8%

**Q:** Provide the documented %Inh with NEK4 as the system for Cc1ccccc1Cn1ccn2c(=O)cc(N3CCOCC3)nc12 [GSK2269905]
**A:** 16%

---

Catalogue of molecules with associated %Inh
system: ACVR1; conditions: concentration: 1 μM, replicates: in singlicate; n = 1
Quick reminder: number only, in %, skip the unit.

>>> endpoint_result("CCc1ccc(-c2ccc3c(c2)-c2n[nH]cc2S(=O)(=O)N3C)cc1")
0
>>> endpoint_result("CNc1nc(-c2ccc3c(N)n[nH]c3c2)cc(N2C[C@@H](C(=O)NC3CCCCC3)OC[C@H]2C)n1")
18

Okay, next one:
**Q:** Please report the recorded %Inh for `CCn1c(-c2ccccc2)nc2cnccc21` .
**A:** 23

---

tested on: TXK; details: concentration: 1 μM, replicates: in singlicate; n = 1
Measurement Type: %Inh (%)
Write the value in % as a bare number.

For orientation, consider the following solved cases.
>>> endpoint_result("CNC(=O)c1ccc(C)c(-n2c(C)cc(OCc3ccc(F)cc3F)c(Br)c2=O)c1")
0
>>> endpoint_result("Fc1ccc(-c2nc3n(c2-c2ccncc2)CCS3)cc1")
0
>>> endpoint_result("Cc1ccc(NC(=O)Nc2ccc(Cl)cc2)cc1-c1ccc(C(=O)Nc2ccncc2)cc1")
47

# evaluate next
**Q:** Fill blank: measured %Inh of the compound `COc1nccc(-c2c(-c3ccc(F)cc3)ncn2CCCN2CCOCC2)n1` is ____.
**A:** 6

---

tested on: CAMK1B; settings: concentration: 1 μM, replicates: in singlicate; n = 1
// %Inh lookup, one value per entry
Just the number please, in %, no unit attached.

>>> endpoint_result("O=C(Nc1n[nH]c2nc(-c3cccs3)c(Br)cc12)C1CCCC1")
0
>>> endpoint_result("COc1ccc(Nc2nccc(-c3ccc(NC(=O)c4cc5cc(F)ccc5[nH]4)cc3)n2)cc1")
26
>>> endpoint_result("COc1ccc(Nc2nccc(N3CCC(NC(=O)C(C)c4ccc(Cl)cc4)C3)n2)cc1 (stereo not shown)")
5
>>> endpoint_result("Cl.Cl.Cl.N#Cc1ccc(CCNc2nccc(-c3cccc(CN4CCNCC4)c3)n2)cc1")
0
>>> endpoint_result("CNCc1ccc2nc(NC(=O)c3ccc(C(C)(C)C)cc3)cn2c1")
33

**Q:** Look up %Inh for this molecule: `Nc1cccc(-c2ccc3c(N)n[nH]c3c2)n1`
**A:** 0

**Q:** Fill in: %Inh of `CS(=O)(=O)CCNCc1nc(-c2ccc3ncnc(Nc4ccc5c(cnn5Cc5ccccc5)c4)c3c2)cs1.Cl.Cl` is ___
**A:** 0

**Q:** Recorded %Inh of `Nc1ncnc2occ(-c3ccc4c(c3)CCN4C(=O)Cc3cc(F)ccc3F)c12` , please.
**A:** 0

**Q:** // %Inh lookup, key: `Fc1ccc(-c2nn3cccc(F)c3c2-c2ccncc2)cc1`
**A:** 39

**Q:** Item under review: `COc1ccc(Nc2nccc(NCCNC(=O)Nc3cc(C)ccc3C)n2)cc1` . Reported %Inh?
**A:** 4
